Please find below pIC50 data on Serine/threonine-protein kinase pim-1 (Homo sapiens) compiled from the literature.
pIC50: −log10 of the molar value.
Label TRUE when pIC50 is at or above 10; otherwise label FALSE.

QUERY: pIC50 >= 10 for `N[C@H]1C[C@@H](O)CN(c2ccncc2NC(=O)c2csc(-c3c(F)cccc3F)n2)C1` ?
RESULT: FALSE

QUERY: Is pIC50 at least 10? Consider CC(C)Oc1cccc2ccc(-c3nnc4ccc(C(N5C[C@@H](O)[C@H](O)C5)C(F)(F)F)cn34)nc12 (single isomer, unassigned)
RESULT: FALSE

QUERY: Reported pIC50 reaches at least 10 for `C[C@H]1C[C@@H](c2ccncc2NC(=O)c2ccc(F)c(-c3c(F)cc(OC4COC4)cc3F)n2)C[C@@H](N)[C@@H]1O` ?
RESULT: TRUE

QUERY: Hello, I need to know if `N[C@H]1CCCN(c2ccncc2NC(=O)c2csc(-c3ccccc3F)n2)C1` has measured pIC50 not below 10. Thanks!
RESULT: FALSE

QUERY: Is the recorded value of pIC50 equal to or greater than 10 for this compound? CN(C)CC(CNc1nc2c(Br)c(Br)c(Br)c(Br)c2[nH]1)C(O)c1ccccc1 (centres unmarked)
RESULT: FALSE

QUERY: hey, is pIC50 for this one >= 10? `CCn1c(N2CCN(CCN3CCNCC3)CC2)nc2c(Br)c(Br)c(Br)c(Br)c21`
RESULT: FALSE

QUERY: Please check the record `C[C@@H]1C[C@H](N)C[C@H](c2ccncc2NC(=O)c2ccc(F)c(-c3c(F)cc(C4COC4)cc3F)n2)C1` and state if its pIC50 is at or above 10.
RESULT: TRUE

QUERY: Say whether `Nc1sc(-c2c(F)cccc2F)nc1C(=O)Nc1cnccc1N1CCC(F)CC1` shows pIC50 of 10 or more.
RESULT: FALSE

QUERY: Quick check, pIC50 >= 10? `C[C@@H]1C[C@H](N)C[C@H](c2ccncc2NC(=O)c2ccc(F)c(-c3c(F)cc(C(C)(C)C(=O)O)cc3F)n2)C1`
RESULT: FALSE

QUERY: Does the compound `C[C@@H]1CN(c2nc3c(Br)c(Br)c(Br)c(Br)c3[nH]2)[C@@H](C)CN1` have recorded pIC50 that is 10 or more?
RESULT: FALSE

QUERY: Textbook exercise: given the entry `CC(C)OCc1cc(F)c(-c2nc(C(=O)Nc3cnccc3[C@H]3C[C@@H](N)[C@H](O)[C@@H](C)C3)ccc2F)c(F)c1` , state whether its pIC50 is greater than or equal to 10.
RESULT: TRUE

QUERY: Reported pIC50 reaches at least 10 for `C[C@H]1C[C@@H](c2ccncc2NC(=O)c2ccc(F)c(-c3c(F)cc(N4CCOCC4)cc3F)n2)C[C@@H](N)[C@@H]1O` ?
RESULT: TRUE

QUERY: Entry `C[C@@H]1C[C@H](N)C[C@H](c2ccncc2NC(=O)c2ccc(F)c(-c3c(F)cc(OC(F)F)cc3F)n2)C1` : is its pIC50 no less than 10?
RESULT: TRUE

QUERY: Kindly determine if pIC50 recorded for `CC(C)[C@@H]1C[C@H](N)C[C@H](c2ccncc2NC(=O)c2ccc(F)c(-c3c(F)cc(C4CCOCC4)cc3F)n2)C1` is above or exactly 10.
RESULT: TRUE

QUERY: Reported pIC50 at or above 10? CC(=O)N[C@H]1CCN(C(c2ccc3nnc(-c4ccc5cccc(OCC6CC6)c5n4)n3c2)C(F)(F)F)C1 (some centres unmarked)
RESULT: FALSE

QUERY: I'd appreciate it if you could say whether `COC(C)(C)c1cc(F)c(-c2nc(C(=O)Nc3cnccc3[C@@H]3C[C@H](C)C[C@H](N)C3)ccc2F)c(F)c1` has pIC50 at least equal to 10.
RESULT: TRUE

QUERY: Could you tell me if the measured pIC50 of `Brc1c(Br)c(Br)c2[nH]c(NC3CCCCCCC3)nc2c1Br` reaches 10 or more?
RESULT: FALSE

QUERY: Please tell me: is the compound `C[C@@H]1C[C@H](N)C[C@H](c2ccncc2NC(=O)c2ccc(F)c(-c3c(F)cc(N4CCOCC4)cc3F)n2)C1` at or over 10 in terms of pIC50?
RESULT: TRUE

QUERY: Is the recorded value of pIC50 equal to or greater than 10 for this compound? `Cc1c2c(nn1C)C(=O)N(C)CCOc1c(cnn1C)-c1ccc3[nH]nc(c3c1)/C=C/2`
RESULT: FALSE

QUERY: In plain terms: is recorded pIC50 at least 10 for `Nc1ccc(-c2ccccc2)nc1-c1cc2c(N3CCC[C@H](N)C3)ccnc2cn1` ?
RESULT: FALSE

QUERY: Does the compound `Cc1cc(F)c(-c2nc(C(=O)Nc3cnccc3[C@H]3C[C@@H](N)C[C@@H](C(C)C)C3)ccc2F)c(F)c1` have recorded pIC50 that is 10 or more?
RESULT: TRUE

QUERY: Reported pIC50 at or above 10? `C[C@H]1C[C@@H](c2ccncc2NC(=O)c2ccc(F)c(-c3c(F)cc(C4CCS(=O)(=O)CC4)cc3F)n2)C[C@@H](N)[C@@H]1O`
RESULT: TRUE

QUERY: Quick check, pIC50 >= 10? `CN[C@H]1CCN([C@H](c2ccc3nnc(-c4ccc5ccc(C(=O)NC(C)(C)C)cc5n4)n3c2)C(F)(F)F)C1`
RESULT: FALSE

QUERY: Can `COc1ccc(F)c(-c2nc(C(=O)Nc3cnccc3[C@@H]3C[C@H](C)C[C@H](N)C3)ccc2F)c1F` be said to have pIC50 at or above 10?
RESULT: TRUE
